Data provenance is PubChem BioAssay (NCI).

System: RXF 393 renal
Assay: NCI-60 one-dose screen, 48 h
Conditions: 10 µM unless noted
Compounds without any hit were thinned out: in the full panel of roughly 83,000, 20% have a hit. The source made the active and inactive calls. How the source made its calls: active means growth percent below 10; inactive means the rest.
Allowed answers: y (active), n (inactive)

Hey, what did the test say about `O=C(Nc1ccc(Cl)cc1)c1cc2cc(F)ccc2cc1O` ?
n

Hey, what did the test say about `CC(=O)c1nc2ccccc2n1CC(=O)c1cccc(Cl)c1` ?
y

Hey, what did the test say about `CCN1CCN(c2nc(NCCCNc3ccnc4cc(Cl)ccc34)c3ccccc3n2)CC1` ?
y

Hey, what did the test say about `Cc1ccccc1COc1ccc(-c2onc(C)c2-c2ccc(Cl)cc2)cc1` ?
n

Hey, what did the test say about `CCCCCCCCCCCCC[N+](C)(C)Cc1ccccc1` ?
y

New cases:
Hey, what did the test say about `Cn1ncc2c(=O)nc3c(-c4ccccc4)n[nH]n3c21` ?
n

Hey, what did the test say about `CC[C@H]1OC(=O)[C@H](C)[C@@H](O[C@H]2C[C@@](C)(OC)[C@@H](O)[C@H](C)O2)[C@H](C)[C@@H](O[C@@H]2O[C@H](C)C[C@H](N(C)C)[C@H]2O)[C@](C)(O)C[C@H](C)CN(C)[C@H](C)[C@@H](O)[C@]1(C)O` ?
n

Hey, what did the test say about `O=C1c2ccccc2C(=O)c2c(N=Nc3[nH]c(=S)[nH]c3O)cccc21` ?
y

Hey, what did the test say about `Cc1ccc(OC(=O)c2ccc(Cl)cc2)cc1` ?
n

====

System: MCF7 breast
Experiment: NCI-60 one-dose screen, 48 h (100 = growth as untreated, 0 = no growth, -100 = all killed)
Settings: 10 µM unless noted
This is part of a sample that, as a whole, favours compounds with a hit. Of some 83,000 tested, about 20% had one in any assay.
// NB: equality with 60% counts as not satisfied; only growth strictly below is satisfied

For `NC(N)=N/N=C(/c1ccccc1)c1ccc(F)cc1` , is the recorded growth below the cut-off of 60%?
satisfied

For `COc1cccc(/C=C2\Oc3cc(OCCN4CCCC4)ccc3C2=O)c1` , is the recorded growth below the cut-off of 60%?
not satisfied

For `COC(=O)[C@@H]1CCCN1C(=O)[C@@H]1CCCN1C(=O)[C@H](Cc1ccccc1)NC(=S)Nc1cc(C(F)(F)F)cc(C(F)(F)F)c1` , is the recorded growth below the cut-off of 60%?
not satisfied

For `COc1cc(/C=C/C(=O)c2c(C)oc3nc[nH]c(=O)c23)cc(OC)c1OC` , is the recorded growth below the cut-off of 60%?
satisfied

For `O=C(/C=C/c1cccc([N+](=O)[O-])c1)c1ccc(O)c(CN2CCN(c3cc4c(cc3F)c(=O)c(C(=O)O)cn4C3CC3)CC2)c1` , is the recorded growth below the cut-off of 60%?
satisfied

New cases:
For `COc1cc(-c2nn(-c3ccc(C(=O)O)cc3)cc2C(=O)O)ccc1O` , is the recorded growth below the cut-off of 60%?
satisfied

For `O=c1cc(/C(=C2/C=CC=N2)c2ccc[nH]2)c2cc(Cl)ccc2o1` , is the recorded growth below the cut-off of 60%?
not satisfied

For `CC/C=C\C[C@H](O)C/C=C1/C(=O)C=C[C@@]1(C)C/C=C\CCCC(=O)OC` , is the recorded growth below the cut-off of 60%?
not satisfied
